assayed_target: human renin (Homo sapiens, UniProt P00797)
Sequence (P00797 67-406): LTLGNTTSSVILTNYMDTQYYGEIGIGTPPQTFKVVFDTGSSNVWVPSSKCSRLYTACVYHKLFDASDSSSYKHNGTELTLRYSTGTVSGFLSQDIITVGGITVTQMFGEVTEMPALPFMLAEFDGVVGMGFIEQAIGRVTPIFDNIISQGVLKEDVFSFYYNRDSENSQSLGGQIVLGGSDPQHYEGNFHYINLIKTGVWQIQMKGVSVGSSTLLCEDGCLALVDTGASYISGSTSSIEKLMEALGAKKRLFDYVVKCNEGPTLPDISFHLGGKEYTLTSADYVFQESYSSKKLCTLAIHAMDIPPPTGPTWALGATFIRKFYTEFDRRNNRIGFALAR
measured_attribute: IC50 (µM)

COC(=O)[C@H](C)N(C)C(=O)CC(Cc1cccc2ccccc12)C(=O)N[C@@H](Cc1c[nH]cn1)C(=O)N[C@@H](CC(C)C)C(O)C(=O)OC(C)C (stereo partly drawn) :: 0.033
CNC(=O)CNC(=O)CC(Cc1cccc2ccccc12)C(=O)N[C@@H](Cc1c[nH]cn1)C(=O)N[C@@H](CC(C)C)C(O)C(=O)OC(C)C (mixture of isomers) :: 0.62

(a) CC(C)C[C@H](NC(=O)[C@H](Cc1c[nH]cn1)NC(=O)C(CC(N)=O)Cc1cccc2ccccc12)C(O)C(=O)OC(C)C (mixture of isomers)
(b) COC(=O)CC(Cc1cccc2ccccc12)C(=O)N[C@@H](Cc1c[nH]cn1)C(=O)N[C@@H](CC(C)C)C(O)C(=O)NCCC(C)C (mixture of isomers)
(c) COC(=O)[C@H]1CCCN1C(=O)CC(Cc1cccc2ccccc12)C(=O)N[C@@H](Cc1c[nH]cn1)C(=O)N[C@@H](CC(C)C)C(O)C(=O)OC(C)C (stereo partly drawn)
(d) CC(C)C[C@H](NC(=O)[C@H](Cc1c[nH]cn1)NC(=O)C(CC(=O)N(C)CCO)Cc1cccc2ccccc12)C(O)C(=O)OC(C)C (mixture of isomers)
Could you please order the items by IC50, going from the lowest number to the highest? Present the labels in the sequence the task asks for. c, d, b, a
(c: 0.028 µM, d: 0.041 µM, b: 0.22 µM, a: 0.52 µM)

----------
assayed_target: renin in human high renin plasma (Homo sapiens, UniProt P00797)
Construct: 500 μl of human high renin plasma
run_description: Renin inhibitory effect in a human high renin plasma
test_context: pH 7.4, 30 minutes at 37° C., read-out: IC50 (molar concentration)
pIC50: −log10 of the molar value.
measured_attribute: pIC50

The following molecules have reported results that may help.
COC(=O)[C@@H]1CC(O)CN1C(=O)CC(Cc1cccc2ccccc12)C(=O)N[C@@H](Cc1c[nH]cn1)C(=O)N[C@@H](CC(C)C)C(O)C(=O)OC(C)C (stereo partly shown) :: 6.72
COC(=O)CNC(=O)CC(Cc1cccc2ccccc12)C(=O)N[C@@H](Cc1c[nH]cn1)C(=O)N[C@@H](CC(C)C)C(O)C(=O)OC(C)C (mixture of isomers) :: 7.12
COC(=O)[C@@H]1CCCN1C(=O)CC(Cc1cccc2ccccc12)C(=O)N[C@@H](Cc1c[nH]cn1)C(=O)N[C@@H](CC(C)C)[C@@H](O)CC(=O)NCCC(C)C (stereo partly shown) :: 6.66
COC(=O)CCN(C)C(=O)CC(Cc1cccc2ccccc12)C(=O)N[C@@H](Cc1c[nH]cn1)C(=O)N[C@@H](CC(C)C)C(O)C(=O)OC(C)C (mixture of isomers) :: 7.77
COC(=O)C[C@@H](C(=O)OC)N(C)C(=O)CC(Cc1cccc2ccccc12)C(=O)N[C@@H](Cc1c[nH]cn1)C(=O)N[C@@H](CC(C)C)C(O)C(=O)OC(C)C (stereo partly shown) :: 6.72
CC(C)C[C@H](NC(=O)[C@H](Cc1c[nH]cn1)NC(=O)C(CC(=O)N(CCO)CCO)Cc1cccc2ccccc12)C(O)C(=O)OC(C)C (mixture of isomers) :: 6.74
COC(=O)CN(C)C(=O)CC(Cc1cccc2ccccc12)C(=O)N[C@@H](Cc1c[nH]cn1)C(=O)N[C@@H](CC(C)C)C(O)C(=O)NCCC(C)C (mixture of isomers) :: 6.47
COC(=O)[C@H](C)NC(=O)CC(Cc1cccc2ccccc12)C(=O)N[C@@H](Cc1c[nH]cn1)C(=O)N[C@@H](CC(C)C)C(O)C(=O)OC(C)C (stereo partly shown) :: 6.68
COC(=O)[C@H]1CCCN1C(=O)CC(Cc1cccc2ccccc12)C(=O)N[C@@H](Cc1c[nH]cn1)C(=O)N[C@@H](CC(C)C)C(O)C(=O)OC(C)C (stereo partly shown) :: 7.82
COC(=O)C(O)[C@H](CC(C)C)NC(=O)[C@H](Cc1c[nH]cn1)NC(=O)C(CC(=O)N1CCC[C@H]1C(=O)OC)Cc1cccc2ccccc12 (stereo partly shown) :: 7.28

(a) COC(=O)CC(Cc1cccc2ccccc12)C(=O)N[C@@H](Cc1c[nH]cn1)C(=O)N[C@@H](CC(C)C)[C@@H](O)CC(=O)NCCC(C)C (stereo partly shown)
(b) COC(=O)CN(C)C(=O)CC(Cc1cccc2ccccc12)C(=O)N[C@@H](Cc1c[nH]cn1)C(=O)N[C@@H](CC(C)C)C(O)C(=O)OC(C)C (mixture of isomers)
Select one. Lower pIC50: a or b API: response body contains the label of the selected item. a

(A) CC(C)C[C@H](NC(=O)[C@H](Cc1c[nH]cn1)NC(=O)C(CC(=O)N[C@@H](C)C(N)=O)Cc1cccc2ccccc12)C(O)C(=O)OC(C)C (stereo partly shown)
(B) COC(=O)CN(C)C(=O)CC(Cc1cccc2ccccc12)C(=O)N[C@@H](Cc1c[nH]cn1)C(=O)N[C@@H](CC(C)C)C(O)C(=O)OC (mixture of isomers)
(C) CC(C)C[C@H](NC(=O)[C@H](Cc1c[nH]cn1)NC(=O)C(CC(=O)N(C)CCO)Cc1cccc2ccccc12)C(O)C(=O)OC(C)C (mixture of isomers)
(D) COC(=O)CC(Cc1cccc2ccccc12)C(=O)N[C@@H](Cc1c[nH]cn1)C(=O)N[C@@H](CC(C)C)C(O)C(=O)NCCC(C)C (mixture of isomers)
(E) COC(=O)[C@@H]1CCCN1C(=O)CC(Cc1cccc2ccccc12)C(=O)N[C@@H](Cc1c[nH]cn1)C(=O)N[C@@H](CC(C)C)C(O)C(=O)OC(C)C (stereo partly shown)
Ordering: ascending pIC50. # output: labels, in the requested order D, A, E, C, B
(D: 6.16, A: 6.62, E: 7.30, C: 7.55, B: 7.85)

(P) COC(=O)CN(C)C(=O)CC(Cc1cccc2ccccc12)C(=O)N[C@@H](Cc1c[nH]cn1)C(=O)N[C@@H](CC(C)C)[C@@H](O)CC(=O)NCCC(C)C (stereo partly shown)
(Q) CNC(=O)CNC(=O)CC(Cc1cccc2ccccc12)C(=O)N[C@@H](Cc1c[nH]cn1)C(=O)N[C@@H](CC(C)C)C(O)C(=O)OC(C)C (mixture of isomers)
Lower value for measured pIC50? Options: P , Q Indicate which entry you chose by stating its label. Q
(Q: 6.54, P: 7.46)
